assay: Identification of proteins required for the processing of the EWS-FLI1 nascent transcript; conditions: TC32 Ewing sarcoma NR0B1-luc vs CMV-luc, 48 h; screened at 20 nM (by protocol);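 also: robust z of luciferase light less the median z of siRNAs with the same seed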
In all, about 59,000 sequences were measured (the read-out: median about -0.00055, lowest 2% from about -2 on). The entries come from a sample that favours the lowest values as a whole.
If the reported seed-corrected z-score equals or exceeds 0.03, assign Criterion met. If not, assign Criterion not met.

AAAGGAAAGAUGACAGUAU against OR4N5	Criterion met
UUUAUAAAGAGGGUGGAUC against SGCB	Criterion not met
UGUCGUAUCUCUCUUCAUC against TNNI3	Criterion not met

Confirm if seed-corrected z-score reported for the sequence AAUGCGAUUAUUGUCUGUC against CCT3 is 0.03 or above. Criterion not met

Confirm if seed-corrected z-score reported for the sequence AUACUCCACACCACAAAGC against LTB4R is 0.03 or above. Criterion met

Confirm if seed-corrected z-score reported for the sequence UGGUAUAUAAGGGAUGAGC against ZNF611 is 0.03 or above. Criterion not met

Confirm if seed-corrected z-score reported for the sequence UCUAUGUUGACAACCUCUC against DSPP is 0.03 or above. Criterion met

###

assay: Identification of proteins required for the processing of the EWS-FLI1 nascent transcript; conditions: TC32 Ewing sarcoma NR0B1-luc vs CMV-luc, 48 h; screened at 20 nM (by protocol);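 also: robust z of luciferase light less the median z of siRNAs with the same seed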
Over roughly 59,000 sequences, the read-out has its median near -0.00055; the lowest 2% begin near -2. The entries come from a sample that favours the lowest values as a whole.
seed-corrected z-score reference
Respond with the number and no other words.

UUCAUCAAAUUGGACAUCU against ATP6V1E1	-0.95
GUUGUGACCUGUCACGAUG against CTU1	-1.99
UUCCCUUUCACGUCCAUGU against WFIKKN2	-0.0396
AUUCUUAAUCUUUACAUCC against BRDTP1	0.809
UUUGGUGAUAGGGUGCUCG against C5orf60	-3.47

We next turn to a different sequence, shown below.
What value of seed-corrected z-score has been reported for the following sequence? UACAUGAAAAGCAAGGCUG against OR6B3 0.504

###

experiment: Identification of proteins required for the processing of the EWS-FLI1 nascent transcript; conditions: TC32 Ewing sarcoma NR0B1-luc vs CMV-luc, 48 h; screened at 20 nM (by protocol);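 also: robust z of luciferase light less the median z of siRNAs with the same seed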
Whole data set: some 59,000 sequences, median the read-out near -0.00055, cut for the lowest 2% near -2. The full list was thinned out, with the lowest values kept by preference.
Could you please mark Condition met for values of seed-corrected z-score below 0.5 and Condition not met for values at or above it?

Take a look at these entries with their results.
UUCUCAUCAAACUCUACAC against OLFML3	Condition met
ACUUGGAAAUCUCUUUUCG against FAM117A	Condition met
UAAAAUGUCUGACUCCUUG against CDKN1A	Condition met

Below 0.5 on seed-corrected z-score? Entry UCAGAUUUCAGAUCUUUGA against ANXA11 Condition met

Below 0.5 on seed-corrected z-score? Entry UUUGAUUGAGGCAUAUGCG against REEP6 Condition not met

Below 0.5 on seed-corrected z-score? Entry AAGACUUUCAGACAUUUGU against ZNF181 Condition met

Below 0.5 on seed-corrected z-score? Entry UUAUGAUCCAGGUAGAGGA against INHBE Condition not met

Below 0.5 on seed-corrected z-score? Entry UAUAGAGGAAAGCUAUGCC against ERCC6L Condition not met

Below 0.5 on seed-corrected z-score? Entry UUUUCUCCCUUUAUAAGGC against OXCT1 Condition not met

Below 0.5 on seed-corrected z-score? Entry AAAAGGACUAUGUACAGCC against SNRPB Condition met

Below 0.5 on seed-corrected z-score? Entry AAAGGGACACUGAUUCAGU against TRAM1 Condition met

Below 0.5 on seed-corrected z-score? Entry UUACGUUCAACCUUAGAUC against PHLPP1 Condition met

###

assay: Identification of proteins required for the processing of the EWS-FLI1 nascent transcript; settings: TC32 Ewing sarcoma NR0B1-luc vs CMV-luc, 48 h; screened at 20 nM (by protocol);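 also: robust z of luciferase light less the median z of siRNAs with the same seed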
Over roughly 59,000 sequences, the read-out has its median near -0.00055; the lowest 2% begin near -2. The entries come from a sample that favours the lowest values as a whole.
Entries get a class label from measured seed-corrected z-score. See ranges: lower segment: < -0.4; middle segment: ≥ -0.4 and < 0.2; upper segment: ≥ 0.2

UCCGUCGUCAGAAAGAUGC against DGCR2	middle segment

# bin label for UUUACUGGGAUAGUUAAUC against C2CD4A upper segment

# bin label for UUCAGUACCAGGCUGGGUG against COMT upper segment

# bin label for AACGGAACCUGUGAGAUCC against LARS2 middle segment

# bin label for UAUCUGUGCAGUUAAGAUG against LOC401220 middle segment

# bin label for UUGACAUUUACUUCAGUUU against TRABD upper segment

# bin label for UCAAUGCAAAGGAACACUC against ARFGAP3 middle segment

# bin label for UUAGUUUCUACAUUAUUGU against ENTPD1-AS1 upper segment

# bin label for UUCCUUCCUACUCAGGGUC against S100A5 lower segment

# bin label for UCCGAUGACACCAAGAGCG against REEP5 upper segment

# bin label for UGUCUUUCAAACGUAGGCC against ZNF792 lower segment

# bin label for UUGACUACCAGGAAAGGCU against KRT86 middle segment

# bin label for UUCCUCAUGAUUGUCCUCA against GABARAPL1 middle segment

# bin label for UUACUUGUACCCGCUGUUC against RLTPR lower segment

# bin label for UUCUUGUUCACUCUAAUUU against NFIC upper segment

# bin label for UCCAUGUCAUGUAAAUUUC against MR1 lower segment

# bin label for AAACCAAGUAGCUUGAUGU against LOC647275 upper segment

# bin label for UCUUAUGUAAUUGUUCCUC against KANSL1 upper segment

# bin label for UGUAGUCACUUUCACAUUC against CCR2 lower segment

# bin label for AUCCUUGAAAGCCUCAUAC against XPR1 upper segment

# bin label for UUUUCUAAUAUGCUAACUG against BMP8A lower segment

###

seed-corrected z-score reference
experiment: Identification of proteins required for the processing of the EWS-FLI1 nascent transcript; conditions: TC32 Ewing sarcoma NR0B1-luc vs CMV-luc, 48 h; screened at 20 nM (by protocol);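 also: robust z of luciferase light less the median z of siRNAs with the same seed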
In all, about 59,000 sequences were measured (the read-out: median about -0.00055, lowest 2% from about -2 on). Many of the other results were omitted from the sample, so the lowest values are more common in it than they were.
Respond with the number and no other words.

Below: 5 sequences and their reported seed-corrected z-score.
AUUUCUUUCAUAGUCACCG against RASL11B	-0.122
AUCUGCUUAAUCUUUACAC against OR51F2	-2.93
AAGACUUCCAUCUAAGAUC against SLC39A11	-1.62
UGAAGUUCAGCUACUAGCC against DIMT1	-0.104
AUGGUGAAGACGUAGUUGC against CACNA1H	-1.21

What value of seed-corrected z-score has been reported for the following sequence? UCCAAGUUCACGAAGAUUU against MMD 0.344

What value of seed-corrected z-score has been reported for the following sequence? UACAGGGCAAUGAACAGGG against FGR 0.274

What value of seed-corrected z-score has been reported for the following sequence? UUAGUUGCACCCAAAUCCA against CCDC17 -2.22

What value of seed-corrected z-score has been reported for the following sequence? UUGGUUCCAUUGUAGGUCU against TSPAN3 -0.422

What value of seed-corrected z-score has been reported for the following sequence? UUGGUCUAGACUACUCUCC against KRT5 -0.431

What value of seed-corrected z-score has been reported for the following sequence? AGAAGUUUUUGCUCUGUCC against DYRK4 0.321

What value of seed-corrected z-score has been reported for the following sequence? UGUUCAUCAAGAGGUUUCC against NUP188 0.194

###

assay: Identification of proteins required for the processing of the EWS-FLI1 nascent transcript; settings: TC32 Ewing sarcoma NR0B1-luc vs CMV-luc (EWS-FLI1 target promoter against control promoter), 48 h; screened at 20 nM (by protocol);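 also: robust z of luciferase light less the median z of siRNAs with the same seed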
The full ranking holds about 59,000 sequences; the median of the read-out is about -0.00055, and the lowest 2% start at about -2. The entries come from a sample that favours the lowest values as a whole.
Could you please mark criterion met for values of seed-corrected z-score below -0.03 and criterion not met for values at or above it?

Take a look at these entries with their results.
UUGGGUACCUCAGUCCACG against SNRPD2P1	criterion met
AAGUUCAUAAGAUUCCAUG against MGP	criterion not met
UCUAGGACAGCUCUUAUCC against EDEM3	criterion not met
UCCAUUGCAAUUGUGCCCA against MAGEA4	criterion not met
UAACUUUGUCUUUGGAUUC against SETD9	criterion not met
UUAGGUGCGCGGCUAACUG against COL9A3	criterion met
UCAGUUUUAGGAUAUAUAC against USP46-AS1	criterion not met
UUCUCAUCACUUGUAGCCU against ANKRD36C	criterion not met
UGAGUUUCCAUGCAUAGGA against GOLGA7	criterion met
UUUGUAGAGAAGUUUCACC against ZNF517	criterion not met

Below -0.03 on seed-corrected z-score? Entry AACCGAGUCAGAAUGGUGC against SDC1 criterion not met

Below -0.03 on seed-corrected z-score? Entry UGUUUCGUAAACAUUCACC against FUT10 criterion met
